molecules and their reported Serum Cholesterol % Decrease
Test system: ovariectomized rats
Test: Ovariectomized rat model of postmenopausal hyperlipidemia (serum cholesterol, uterine weight, uterine eosinophil infiltration)
Assay type: in vivo
Settings: dose 0.1 mg/kg; versus ovariectomized controls
endpoint.label: Serum Cholesterol % Decrease (%)

In [3]: df
Out[3]:
                                   molecule                endpoint_label  endpoint_result
0  C#C[C@]1(O)CC[C@H]2[C@@H]3CCc4cc(O)ccc4[C@H]3CC[C@@]21C [EE2, 17-a-ethynyl estradiol, reference compound]  Serum Cholesterol % Decrease             88.1
1  COc1ccc2c3c(sc2c1)[C@H]1CC[C@@H](O)[C@]1(C)CC3  Serum Cholesterol % Decrease              -12
2  C[C@]12CCc3c(sc4cc(O)ccc34)[C@@H]1CC[C@H]2O  Serum Cholesterol % Decrease             12.4
3  C[C@]12CCc3c(sc4cc(O)ccc34)[C@H]1CC[C@@H]2O  Serum Cholesterol % Decrease               13
4  COc1ccc2c3c(sc2c1)C1=CC[C@H](O)[C@@]1(C)CC3  Serum Cholesterol % Decrease                5
5  C[C@]12CCc3c(sc4cc(O)ccc34)[C@@H]1CC[C@@H]2O  Serum Cholesterol % Decrease             10.6
6  COc1ccc2c3c(sc2c1)[C@@H]1CC[C@@H](O)[C@@]1(C)CC3  Serum Cholesterol % Decrease            -18.5
7  COc1ccc2c3c(sc2c1)[C@@H]1CC[C@@H](O)[C@]1(C)CC3  Serum Cholesterol % Decrease             -5.5
8  COc1ccc2c3c(sc2c1)[C@H]1CC[C@H](O)[C@]1(C)CC3  Serum Cholesterol % Decrease             -0.3

* * *

Listed below: Relative binding affinity (RBA) values for each entry.
Molecular target: estrogen receptor (Homo sapiens)
Sequence (P03372 whole entry): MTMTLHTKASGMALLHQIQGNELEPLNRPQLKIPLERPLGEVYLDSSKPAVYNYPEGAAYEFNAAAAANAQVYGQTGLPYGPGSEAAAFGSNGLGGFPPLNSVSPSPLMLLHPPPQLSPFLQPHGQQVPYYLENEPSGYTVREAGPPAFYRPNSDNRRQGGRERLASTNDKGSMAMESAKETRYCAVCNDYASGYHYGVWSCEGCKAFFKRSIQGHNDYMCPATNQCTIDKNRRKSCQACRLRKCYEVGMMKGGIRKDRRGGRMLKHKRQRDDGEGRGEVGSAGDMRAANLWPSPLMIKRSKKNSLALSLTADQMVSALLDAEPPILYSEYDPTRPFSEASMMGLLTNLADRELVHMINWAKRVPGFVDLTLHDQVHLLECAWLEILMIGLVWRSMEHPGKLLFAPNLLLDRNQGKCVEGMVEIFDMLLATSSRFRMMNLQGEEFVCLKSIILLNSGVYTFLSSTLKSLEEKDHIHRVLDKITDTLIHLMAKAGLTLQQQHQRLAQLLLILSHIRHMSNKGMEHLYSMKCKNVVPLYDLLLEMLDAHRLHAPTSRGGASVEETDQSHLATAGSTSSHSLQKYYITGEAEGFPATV
Conditions: competition with 0.5 nM 3H-17β-estradiol, MCF-7 lysate protein, 18 hours at 5° C.
endpoint.label: Relative binding affinity (RBA)

In [3]: df
Out[3]:
                                   molecule  endpoint_result
0  C[C@@]12CCc3c(sc4cc(O)ccc34)[C@@H]1CC[C@H]2O [Example 10]                4
1  C[C@@]12CCc3c(sc4cc(O)ccc34)[C@H]1CC[C@H]2O [Example 11]                4
2  C[C@]12CCc3c(sc4cc(O)ccc34)[C@@H]1CC[C@@H]2O [Example 8]               16
3  C[C@]12CCc3c(sc4cc(O)ccc34)[C@@H]1CC[C@H]2O [Example 9]                9
4  C[C@]12CCc3c(sc4cc(O)ccc34)[C@H]1CC[C@@H]2O [Example 7]               11

* * *

Measured Uterine Weight Increase accompanies every entry in the list below.
System: ovariectomized rats
Test: Ovariectomized rat model of postmenopausal hyperlipidemia (serum cholesterol, uterine weight, uterine eosinophil infiltration)
Format: in vivo
Conditions: dose 0.01 mg/kg; versus ovariectomized controls
Method: Experimental models of postmenopausal hyperlipidemia are known in the art. This uterine response to estrogen is well recognized in the art. As expressed in the data below, estrogenicity also was assessed by evaluating the response of eosinophil infiltration into the uterus. The data presented in Table 2 reflect the response per treatment group.
endpoint.label: Uterine Weight Increase (%)

In [3]: df
Out[3]:
                               entry_smiles  value_unit  endpoint_result
0  COc1ccc2c3c(sc2c1)C1=CC[C@H](O)[C@@]1(C)CC3           %             -4.6
1  C[C@]12CCc3c(sc4cc(O)ccc34)[C@H]1CC[C@@H]2O           %             -3.2
2  C[C@]12CCc3c(sc4cc(O)ccc34)[C@@H]1CC[C@H]2O           %              5.5
3  COc1ccc2c3c(sc2c1)[C@@H]1CC[C@@H](O)[C@@]1(C)CC3           %             -5.9
4  C[C@]12CCc3c(sc4cc(O)ccc34)[C@@H]1CC[C@@H]2O           %             13.7

* * *

System: ovariectomized rats
Experiment: Ovariectomized rat model of postmenopausal hyperlipidemia (serum cholesterol, uterine weight, uterine eosinophil infiltration)
Assay type: in vivo
Conditions: dose 1.0 mg/kg; versus ovariectomized controls
The threshold is inclusive: Uterine Weight Increase of exactly 10% counts as 1; values below receive -1.

                               entry_smiles  label_class
0  C[C@]12CCc3c(sc4cc(O)ccc34)[C@@H]1CC[C@@H]2O           -1
1  COc1ccc2c3c(sc2c1)C1=CC[C@H](O)[C@@]1(C)CC3            1
2  C[C@]12CCc3c(sc4cc(O)ccc34)[C@@H]1CC[C@H]2O           -1
3  COc1ccc2c3c(sc2c1)[C@@H]1CC[C@@H](O)[C@@]1(C)CC3            1
4  C[C@]12CCc3c(sc4cc(O)ccc34)[C@H]1CC[C@@H]2O           -1
5  COc1ccc2c3c(sc2c1)[C@H]1CC[C@@H](O)[C@]1(C)CC3            1
6  COc1ccc2c3c(sc2c1)[C@@H]1CC[C@@H](O)[C@]1(C)CC3            1

Source of measurements: patent US6218425A
